Values were extracted from ChEMBL document CHEMBL5143744.

# Activity per entry
test: In vivo inhibition of NEH3 in Sprague-Dawley rat assessed as increase in fecal water content at 0.1 to 3 mg/kg, po administered via gavage measured after 6 hrs; type: functional; set-up: scale not given: the % may be the effect or the level left; details: dose 0.1-3 mg/kg
The answer is to be given in %; state only the numeric part.

Reference set (4 entries):
{"mol": "CN1Cc2c(Cl)cc(Cl)cc2[C@H](c2cccc(S(=O)(=O)NCCOCCOCCNC(=O)NCCCCNC(=O)NCCOCCOCCNS(=O)(=O)c3cccc([C@@H]4CN(C)Cc5c(Cl)cc(Cl)cc54)c3)c2)C1", "unit.abbrev": "%", "Activity": 10}
{"mol": "CN1Cc2c(Cl)cc(Cl)cc2[C@H](c2cccc(S(=O)(=O)NCCOCCOCCNC(=O)COCC(=O)NCCOCCOCCNS(=O)(=O)c3cccc([C@@H]4CN(C)Cc5c(Cl)cc(Cl)cc54)c3)c2)C1", "unit.abbrev": "%", "Activity": 10}
{"mol": "CN1Cc2c(Cl)cc(Cl)cc2[C@H](c2cccc(S(=O)(=O)NCCOCCOCCNC(=O)Nc3ccc(NC(=O)NCCOCCOCCNS(=O)(=O)c4cccc([C@@H]5CN(C)Cc6c(Cl)cc(Cl)cc65)c4)cc3)c2)C1", "unit.abbrev": "%", "Activity": 10}
{"mol": "CN1Cc2c(Cl)cc(Cl)cc2[C@H](c2cccc(S(=O)(=O)NCCOCCOCCNC(=O)CCC(=O)NCCOCCOCCNS(=O)(=O)c3cccc([C@@H]4CN(C)Cc5c(Cl)cc(Cl)cc54)c3)c2)C1", "unit.abbrev": "%", "Activity": 10}

Note: attention shifts to another entry.
Looking for the measured Activity of CN1Cc2c(Cl)cc(Cl)cc2[C@H](c2cccc(S(=O)(=O)NCCOCCOCCOCCNC(=O)NCCOCCOCCOCCNS(=O)(=O)c3cccc([C@@H]4CN(C)Cc5c(Cl)cc(Cl)cc54)c3)c2)C1 , can you help?
10
